Ref: patent US20240400546A1

- ASSAYED_TARGET: SCD1 (Homo sapiens, UniProt O00767)
- Construct: host or cells: S. cerevisiae ole1Δ strain, plasmid pRS316 with TDH3 promoter and CYC1 terminator
- TEST_DETAILS: Growth inhibition of humanized yeast expressing SCD1 as sole desaturase
- Format: cell-based
- TEST_SETTINGS: humanized yeast strain, 40 h
pIC50: −log10 of the molar value.
OUTCOME_MEASURE: pIC50

| COMPOUND | ASSAYED_TARGET | OUTCOME_MEASURE | COMPARATIVE_SIGN | VALUE |
| --- | --- | --- | --- | --- |
| CC(=O)N1CC(n2cc3ccc(-c4nc(C5CCN(C(=O)OC(C)(C)C)CC5)no4)cc3n2)C1 | SCD1 (Homo sapiens, UniProt O00767) | pIC50 | = | 4.47 |
| CC(C)(C)OC(=O)N1CCN(c2noc(-c3ccc4cnn(C5COC5)c4c3)n2)CC1 | SCD1 (Homo sapiens, UniProt O00767) | pIC50 | = | 5.49 |
| COC(=O)C1CCCN(c2noc(-c3ccc4cnn(C5COC5)c4c3)n2)CC1 (stereo not shown) | SCD1 (Homo sapiens, UniProt O00767) | pIC50 | < | 4.35 |
| COCC(C)(C)n1ncc2ccc(-c3noc(C4CCN(C(=O)OC(C)(C)C)CC4)n3)cc21 | SCD1 (Homo sapiens, UniProt O00767) | pIC50 | < | 4.35 |

====

- ASSAYED_TARGET: SCD1 (Homo sapiens)
- Construct: host or cells: S. cerevisiae ole1Δ strain, plasmid pRS316 with TDH3 promoter and CYC1 terminator
- Sequence (O00767 1-359): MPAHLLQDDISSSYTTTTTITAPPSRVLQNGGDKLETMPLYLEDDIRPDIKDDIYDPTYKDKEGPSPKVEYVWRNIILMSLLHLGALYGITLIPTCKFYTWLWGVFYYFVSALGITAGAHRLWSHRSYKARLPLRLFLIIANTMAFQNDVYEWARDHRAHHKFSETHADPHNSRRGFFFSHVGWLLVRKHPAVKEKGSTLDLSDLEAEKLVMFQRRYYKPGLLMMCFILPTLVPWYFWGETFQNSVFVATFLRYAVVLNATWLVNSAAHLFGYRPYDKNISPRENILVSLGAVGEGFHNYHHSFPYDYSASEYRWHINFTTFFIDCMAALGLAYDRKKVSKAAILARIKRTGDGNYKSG
- TEST_DETAILS: Growth inhibition of humanized yeast expressing SCD1 as sole desaturase
- Assay type: cell-based
- TEST_SETTINGS: humanized yeast expressing human SCD1

| MOLECULE | ASSAYED_TARGET | IC50 |
| --- | --- | --- |
| Cc1nn(C)c2cc(-c3noc(N4CCN(C(=O)c5ccccc5C(F)(F)F)CC4)n3)ccc12 | SCD1 (Homo sapiens) | > 45 µM |
| CC(C)n1ncc2ccc(-c3noc(C4CCN(S(=O)(=O)c5ccccc5Cl)CC4)n3)cc21 | SCD1 (Homo sapiens) | > 45 µM |
| CCc1nn(C)c2cc(-c3noc(C4CCN(C(=O)CNC(=O)c5ccccc5)CC4)n3)ccc12 | SCD1 (Homo sapiens) | > 45 µM |
| Cc1nn(C)c2cc(-c3nsc(C4CCN(C(=O)CNC(=O)c5cccc(C#N)c5)CC4)n3)ccc12 | SCD1 (Homo sapiens) | > 45 µM |
| CC(C)n1ncc2ccc(-c3noc(N4CCN(C(=O)OCC(F)(F)F)CC4)n3)cc21 | SCD1 (Homo sapiens) | > 45 µM |
| Cc1nn(C)c2cc(-c3noc(C4CCN(C(=O)N[C@@H]5C[C@@H]5c5ccccc5)CC4)n3)ccc12 | SCD1 (Homo sapiens) | > 45 µM |
| CC(C)n1ncc2ccc(-c3noc(C4CCN(C(=O)c5ccc(Cl)c(F)c5)CC4)n3)cc21 | SCD1 (Homo sapiens) | > 45 µM |
| CC(C)n1ncc2ccc(-c3noc(C4=C(F)CN(C(=O)OC(C)(C)C)CC4)n3)cc21 | SCD1 (Homo sapiens) | > 45 µM |
| CC(C)n1ncc2ccc(-c3noc([C@H]4CC[C@@H](N)CC4)n3)cc21 | SCD1 (Homo sapiens) | > 45 µM |
| CC1(CC(=O)N2CCC(c3nc(-c4ccc5cnn(C6COC6)c5c4)no3)CC2)CC1 | SCD1 (Homo sapiens) | > 45 µM |
| CC(C)n1ncc2ccc(-c3noc(N4C[C@H]5CN(C(=O)CC(C)(C)C)C[C@H]5C4)n3)cc21 | SCD1 (Homo sapiens) | > 45 µM |
| CC(C)OC(=O)N1CCC(c2nc(-c3ccc4oc(=O)n(C(C)C)c4c3)no2)CC1 | SCD1 (Homo sapiens) | > 45 µM |
| Cc1nn(C)c2cc(-c3nsc(C4CCN(C(=O)OC(C)(C)C)CC4)n3)ccc12 | SCD1 (Homo sapiens) | > 45 µM |
| COC(=O)N1CCC(c2nc(-c3ccc4c(C)nn(C)c4c3)no2)CC1 | SCD1 (Homo sapiens) | > 45 µM |
| CC(C)n1ncc2ccc(-c3noc(C4CCN(C(=O)c5nccs5)CC4)n3)cc21 | SCD1 (Homo sapiens) | > 45 µM |
| COC(=O)N1CCC(c2nc(-c3ccc4cnn(C(F)F)c4c3)no2)CC1 | SCD1 (Homo sapiens) | > 45 µM |
| CC(C)n1ncc2ccc(-c3noc([C@@H]4[C@@H]5CN(C(=O)OC(C)(C)C)C[C@@H]54)n3)cc21 | SCD1 (Homo sapiens) | > 45 µM |
| COC(=O)N1CCC2(CC1)CN(c1nc(-c3ccc4cnn(C(C)C)c4c3)no1)C2 | SCD1 (Homo sapiens) | > 45 µM |
| Cc1nn(C)c2cc(-c3noc(C4CCN(C(=O)CNC(=O)c5cc(Cl)ccc5C(F)(F)F)CC4)n3)ccc12 | SCD1 (Homo sapiens) | > 45 µM |
| CC(C)n1ncc2ccc(-c3nc(C4CCN(C(=O)CC5(C)CC5)CC4)no3)cc21 | SCD1 (Homo sapiens) | > 45 µM |
| Cc1nn(C)c2cc(-c3noc(C4CCN(C(=O)c5ccccc5Cl)CC4)n3)ccc12 | SCD1 (Homo sapiens) | > 45 µM |
| Cc1nn(C)c2cc(-c3noc(C4CCN(C(=O)c5cccc(F)c5)CC4)n3)ccc12 | SCD1 (Homo sapiens) | > 45 µM |
| Cc1nn(C)c2cc(-c3noc(C4CCN(C(=O)CNC(=O)c5ccc(Cl)cc5)CC4(F)F)n3)ccc12 (stereo not shown) | SCD1 (Homo sapiens) | 5.71 µM |
| CC(C)N1C(=O)CCc2ccc(-c3noc(C4CCN(C(=O)OC(C)(C)C)CC4)n3)cc21 | SCD1 (Homo sapiens) | > 45 µM |
| Cc1noc2cc(-c3noc(C4CCN(C(=O)OC5(C)CC5)CC4)n3)ccc12 | SCD1 (Homo sapiens) | > 45 µM |
| Cc1noc2cc(-c3noc(C4CCN(C(=O)CC5(C)CC5)CC4)n3)ccc12 | SCD1 (Homo sapiens) | > 45 µM |
| Cn1c(=O)n(C)c2cc(-c3noc(C4CCN(C(=O)[C@H]5CC(=O)N(c6ccccn6)C5)CC4)n3)ccc21 | SCD1 (Homo sapiens) | > 45 µM |
| CCN1C(=O)CN(C)c2cc(-c3noc(C4CCN(C(=O)CNC(=O)c5ccccc5)CC4)n3)ccc21 | SCD1 (Homo sapiens) | > 45 µM |
| CC(C)n1ncc2ccc(N3CC4(CCNCC4)C3)cc21 | SCD1 (Homo sapiens) | > 45 µM |
| CC(C)n1ncc2ccc(-c3noc(C4CCN(C(=O)c5ccccc5F)CC4)n3)cc21 | SCD1 (Homo sapiens) | > 45 µM |
| CC(C)n1ncc2ccc(-c3noc(C4CCN(C(=O)COc5ccccc5)CC4)n3)cc21 | SCD1 (Homo sapiens) | > 45 µM |

====

- ASSAYED_TARGET: SCD5 (Homo sapiens)
- Construct: host or cells: S. cerevisiae ole1Δ strain, plasmid pRS316 with TDH3 promoter and CYC1 terminator
- Sequence (Q86SK9 whole entry): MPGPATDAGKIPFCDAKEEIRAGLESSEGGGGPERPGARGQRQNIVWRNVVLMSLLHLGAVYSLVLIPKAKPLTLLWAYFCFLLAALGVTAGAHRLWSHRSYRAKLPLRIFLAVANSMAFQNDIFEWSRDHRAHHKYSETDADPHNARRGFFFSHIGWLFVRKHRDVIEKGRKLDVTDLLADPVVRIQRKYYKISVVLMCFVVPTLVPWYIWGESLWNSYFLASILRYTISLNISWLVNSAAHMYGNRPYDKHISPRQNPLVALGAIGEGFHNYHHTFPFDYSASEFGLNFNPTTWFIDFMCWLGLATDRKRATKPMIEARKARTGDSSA
- TEST_DETAILS: Growth inhibition of humanized yeast expressing SCD5 as sole desaturase
- Assay type: cell-based
- TEST_SETTINGS: humanized yeast expressing SCD5
OUTCOME_MEASURE: SCD5 % Max Inhibition (%)

| COMPOUND | VALUE |
| --- | --- |
| COc1ccc(-c2noc(C3CCN(C(=O)[C@@H]4CC(=O)N(c5ccccc5)C4)CC3)n2)cc1OC | 19.53 |
| COc1ccc(-c2noc(C3CCN(C(=O)[C@H]4CC(=O)N(c5ccc(C)c(C)c5)C4)CC3)n2)cc1OC (single isomer, unassigned) | 4.32 |
| Cc1ccc(-c2noc(C3CCN(C(=O)C4CC(=O)N(c5ccc(C)c(C)c5)C4)CC3)n2)cc1 (stereo not drawn) | 13.18 |
| COc1cccc(-c2noc(C3CCN(C(=O)[C@@H]4CC(=O)N(c5ccc(C)c(C)c5)C4)CC3)n2)c1 (single isomer, unassigned) | 8.06 |
| COc1ccc(-c2noc(C3CCN(C(=O)[C@@H]4CC(=O)N(c5ccc(C)c(C)c5)C4)CC3)n2)cc1OC | 3.75 |
| COc1ccc(-c2noc(C3CCN(C(=O)[C@H]4CC(=O)N(c5ccccc5)C4)CC3)n2)cc1OC | 73.43 |
